Quick reference: Dmax of the listed items.
Biological target: SMARCA2 (Homo sapiens, UniProt P51531)
Sequence (P51531 whole entry): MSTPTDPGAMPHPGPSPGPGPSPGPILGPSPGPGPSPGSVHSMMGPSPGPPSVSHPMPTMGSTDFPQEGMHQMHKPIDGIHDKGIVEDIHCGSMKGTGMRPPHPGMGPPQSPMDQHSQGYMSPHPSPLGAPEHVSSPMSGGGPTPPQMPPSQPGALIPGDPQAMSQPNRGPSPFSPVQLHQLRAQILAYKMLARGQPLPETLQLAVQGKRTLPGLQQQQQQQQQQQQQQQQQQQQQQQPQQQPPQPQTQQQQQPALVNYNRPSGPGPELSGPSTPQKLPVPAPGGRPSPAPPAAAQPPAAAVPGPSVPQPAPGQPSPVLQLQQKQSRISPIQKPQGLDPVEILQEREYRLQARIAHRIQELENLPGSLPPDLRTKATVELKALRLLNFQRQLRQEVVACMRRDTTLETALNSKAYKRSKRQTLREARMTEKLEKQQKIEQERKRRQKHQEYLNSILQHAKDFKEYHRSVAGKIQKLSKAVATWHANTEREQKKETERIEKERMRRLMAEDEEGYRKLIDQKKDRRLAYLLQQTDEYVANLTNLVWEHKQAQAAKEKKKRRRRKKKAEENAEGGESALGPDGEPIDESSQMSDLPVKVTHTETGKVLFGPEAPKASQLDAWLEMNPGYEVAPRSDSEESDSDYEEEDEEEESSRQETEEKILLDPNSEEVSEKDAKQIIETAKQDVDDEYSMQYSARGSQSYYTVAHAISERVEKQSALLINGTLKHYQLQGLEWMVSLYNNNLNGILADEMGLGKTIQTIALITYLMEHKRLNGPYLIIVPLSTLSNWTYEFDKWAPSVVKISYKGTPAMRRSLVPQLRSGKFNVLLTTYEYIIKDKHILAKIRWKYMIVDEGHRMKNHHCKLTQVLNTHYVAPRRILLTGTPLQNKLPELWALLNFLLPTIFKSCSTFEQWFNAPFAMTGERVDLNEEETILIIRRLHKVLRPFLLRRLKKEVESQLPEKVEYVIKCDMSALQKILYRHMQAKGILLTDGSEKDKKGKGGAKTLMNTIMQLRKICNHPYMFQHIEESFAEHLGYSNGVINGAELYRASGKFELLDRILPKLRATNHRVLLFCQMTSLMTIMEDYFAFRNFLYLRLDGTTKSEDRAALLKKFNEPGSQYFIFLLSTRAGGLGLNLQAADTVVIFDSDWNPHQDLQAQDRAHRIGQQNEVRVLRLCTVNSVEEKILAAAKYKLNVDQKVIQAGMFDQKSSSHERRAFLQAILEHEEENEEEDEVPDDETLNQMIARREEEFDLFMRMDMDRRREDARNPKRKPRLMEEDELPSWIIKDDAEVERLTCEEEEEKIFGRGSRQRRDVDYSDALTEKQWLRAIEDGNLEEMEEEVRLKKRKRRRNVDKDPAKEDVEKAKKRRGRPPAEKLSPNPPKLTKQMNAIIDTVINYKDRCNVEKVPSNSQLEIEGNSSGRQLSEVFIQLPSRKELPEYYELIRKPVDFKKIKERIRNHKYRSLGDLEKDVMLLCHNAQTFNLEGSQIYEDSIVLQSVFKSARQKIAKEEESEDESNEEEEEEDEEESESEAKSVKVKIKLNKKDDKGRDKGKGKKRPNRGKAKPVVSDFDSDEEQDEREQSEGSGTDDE
Assay: MSD SMARCA2 degradation in A549 cell line
Type: cell-based
Conditions: A549, A549 cells, 24 h

Solved entries:
{"columns": ["compound", "studyTarget", "Dmax"],
 "data": [
  ["Cc1ncsc1-c1ccc(CNC(=O)[C@@H]2C[C@@H](O)CN2C(=O)C(c2cc(OC[C@H]3CC[C@@H](N4CCC(c5cnc(N6CCc7[nH]c8nnc(-c9ccccc9O)cc8c7[C@@H]6C)nc5)CC4)CC3)no2)C(C)C)cc1 (single isomer, unassigned)", "SMARCA2 (Homo sapiens, UniProt P51531)", "70 to 90%"],
  ["Cc1ncsc1-c1ccc(CNC(=O)[C@@H]2C[C@@H](O)CN2C(=O)C(c2cc(N3CCC(CCN4CCC(c5cnc(N6CCc7[nH]c8nnc(-c9ccccc9O)cc8c7[C@@H]6C)nc5)CC4)CC3)no2)C(C)C)cc1 (single isomer, unassigned)", "SMARCA2 (Homo sapiens, UniProt P51531)", "> 90%"],
  ["C#Cc1ccc(CNC(=O)[C@@H]2C[C@@H](O)CN2C(=O)[C@@H](NC(=O)N2CC3(CC(N4CCC(c5cnc(N6CCc7[nH]c8nnc(-c9ccccc9O)cc8c7[C@H]6C)nc5)CC4)C3)C2)C(C)(C)C)c(C)c1", "SMARCA2 (Homo sapiens, UniProt P51531)", "> 90%"]
]}

Then this compound:
// Dmax value for "C#Cc1ccc(CNC(=O)[C@@H]2C[C@@H](O)CN2C(=O)[C@@H](NC(=O)N2CCN(C[C@H]3CC[C@H](N4CCc5[nH]c6nnc(-c7ccccc7O)cc6c5[C@H]4C)CC3)CC2)C(C)(C)C)cc1" : > 90%

Values were extracted from patent US20250170248A1.
